Molecular target: Ca2+/calmodulin-dependent protein kinase II (CaM kinase II) (Rattus norvegicus) (UniProt P11275+P08413+P15791+P11730)
Test: Inhibition of rat Calcium/calmodulin-dependent protein kinase type II at 30 uM
Type: protein assay
measured metric: inhibition (%)

Below, each entry is followed by its recorded inhibition result.
{"compound smiles": "c1ccc(Nc2ncnc3[nH]cnc23)cc1", "observed result": 0}
{"compound smiles": "c1ccc(Sc2ncnc3[nH]cnc23)cc1", "observed result": 0}
{"compound smiles": "Fc1ccc(Oc2[nH]cnc3ncnc2-3)cc1", "observed result": 0}
{"compound smiles": "Fc1ccc(Cn2cnc3c(Sc4ccccc4)ncnc32)cc1", "observed result": 0}

I = Fc1ccc(Cn2cnc3c(Cl)ncnc32)cc1
II = Cn1c(-c2ccc(S(C)(=O)=O)cc2)nc2c(Sc3ccccc3)ncnc21
III = COc1ncnc2ncn(Cc3ccc(F)cc3)c12
Rank by inhibition (largest to smallest). Return the labels ranked in the requested order, please.
II, III, I
(II: 8%, III: 2%, I: 0%)

* * *

Molecular target: Tyrosine-protein kinase Lck (Homo sapiens) (UniProt P06239)
Sequence (P06239 2-509 limits assumed): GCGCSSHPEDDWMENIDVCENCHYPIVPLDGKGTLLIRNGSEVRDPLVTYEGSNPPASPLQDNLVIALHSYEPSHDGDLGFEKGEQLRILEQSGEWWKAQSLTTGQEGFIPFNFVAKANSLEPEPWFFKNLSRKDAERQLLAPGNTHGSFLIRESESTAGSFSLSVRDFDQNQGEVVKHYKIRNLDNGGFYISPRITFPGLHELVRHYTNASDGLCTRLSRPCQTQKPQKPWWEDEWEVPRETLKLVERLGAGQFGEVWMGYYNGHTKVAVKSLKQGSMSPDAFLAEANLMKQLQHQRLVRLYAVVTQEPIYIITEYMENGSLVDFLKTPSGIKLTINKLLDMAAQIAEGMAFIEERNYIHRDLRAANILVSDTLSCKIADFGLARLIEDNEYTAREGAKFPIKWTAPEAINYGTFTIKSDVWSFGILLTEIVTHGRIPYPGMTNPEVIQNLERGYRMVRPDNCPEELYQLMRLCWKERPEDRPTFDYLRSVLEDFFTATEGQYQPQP
Test: Inhibition of human lymphocyte protein tyrosine kinase Lck at 30 uM
measured metric: inhibition (%)

Below: 10 compounds and their reported inhibition.
{"compound": "Cn1cnc2c(Sc3ccc(F)cc3)ncnc21", "inhibition, %": 2}
{"compound": "Fc1ccc(Sc2ncnc3[nH]cnc23)cc1", "inhibition, %": 13}
{"compound": "Cn1c(-c2ccc([S+](C)[O-])cc2)nc2c(Sc3ccccc3)ncnc21 (stereo not drawn)", "inhibition, %": 30}
{"compound": "Fc1ccc(Oc2[nH]cnc3ncnc2-3)cc1", "inhibition, %": 0}
{"compound": "c1ccc(CSc2ncnc3[nH]cnc23)cc1", "inhibition, %": 22}
{"compound": "Cn1cnc2c(SCc3ccc(F)cc3)ncnc21", "inhibition, %": 5}
{"compound": "c1ccc(Oc2ncnc3[nH]cnc23)cc1", "inhibition, %": 11}
{"compound": "Fc1ccc(Cn2cnc3ncnc(Cl)c32)cc1", "inhibition, %": 0}
{"compound": "Fc1ccc(Cn2cnc3c(Cl)ncnc32)cc1", "inhibition, %": 0}
{"compound": "Cn1c(C#CCCO)nc2c(Sc3ccccc3)ncnc21", "inhibition, %": 11}

P = Fc1ccc(Nc2[nH]cnc3ncnc2-3)cc1
Q = Fc1ccc(C[n+]2c[nH]c3ncncc32)cc1
Short answer wanted: higher inhibition, P or Q ? Your answer should be the label attached to the chosen record.
P

* * *

Target: RAC-alpha serine/threonine-protein kinase (Homo sapiens)
Test: Inhibition of human Protein kinase B alpha at 30 uM
measured metric: inhibition (%)

A = Nc1ncnc2ncn(Cc3ccc(F)cc3)c12
B = Fc1ccc(Nc2[nH]cnc3ncnc2-3)cc1
Which record shows the lower inhibition: the first, A , or the second, B ? Answer with the label corresponding to your selection.
A
(A: 0%, B: 18%)

1 = Nc1ncnc2c1ncn2Cc1ccc(F)cc1
2 = Fc1ccc(CSc2[nH]cnc3ncnc2-3)cc1
3 = Cn1c(-c2ccccc2)nc2c(Sc3ccc(F)cc3)ncnc21
// ranking: key=inhibition, reverse=True Sort and list the labels as requested.
3, 2, 1

* * *

Target: RAF proto-oncogene serine/threonine-protein kinase (Homo sapiens) (UniProt P04049)
Sequence (P04049 whole entry): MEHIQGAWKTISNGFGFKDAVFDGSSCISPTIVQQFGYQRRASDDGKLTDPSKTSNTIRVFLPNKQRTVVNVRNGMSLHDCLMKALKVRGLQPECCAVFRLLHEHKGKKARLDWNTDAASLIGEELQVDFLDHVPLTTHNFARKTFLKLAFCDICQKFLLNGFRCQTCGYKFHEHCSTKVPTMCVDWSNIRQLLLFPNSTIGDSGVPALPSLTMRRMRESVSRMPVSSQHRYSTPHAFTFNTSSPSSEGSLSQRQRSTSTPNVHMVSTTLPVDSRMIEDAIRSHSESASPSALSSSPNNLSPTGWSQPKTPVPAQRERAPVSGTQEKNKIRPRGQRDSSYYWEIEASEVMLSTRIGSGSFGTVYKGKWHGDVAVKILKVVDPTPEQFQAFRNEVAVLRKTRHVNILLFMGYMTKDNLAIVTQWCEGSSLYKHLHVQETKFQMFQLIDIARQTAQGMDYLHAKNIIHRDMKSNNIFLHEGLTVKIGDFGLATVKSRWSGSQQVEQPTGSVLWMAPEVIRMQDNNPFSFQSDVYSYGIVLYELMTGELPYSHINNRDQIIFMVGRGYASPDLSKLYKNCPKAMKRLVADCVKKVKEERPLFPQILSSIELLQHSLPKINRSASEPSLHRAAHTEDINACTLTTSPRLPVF
Test: Inhibition of human RAF proto-oncogene serine/threonine-protein kinase at 30 uM
measured metric: inhibition (%)

Worked cases, answers included:
{"compound": "Cn1cnc2c(Sc3ccccc3)ncnc21", "experimental target": "RAF proto-oncogene serine/threonine-protein kinase (Homo sapiens) (UniProt P04049)", "unit": "%", "observed result": 10}
{"compound": "COc1ncnc2ncn(Cc3ccc(F)cc3)c12", "experimental target": "RAF proto-oncogene serine/threonine-protein kinase (Homo sapiens) (UniProt P04049)", "unit": "%", "observed result": 9}

I = c1ccc(Cn2cnc3c(Sc4ccccc4)ncnc32)cc1
II = CSc1ccc(-c2nc3c(Sc4ccc(F)cc4)ncnc3n2C)cc1
Which shows the larger inhibition value: I or II ? Give the label of your selection.
II
(II: 1%, I: 0%)

P = c1ccc(-[n+]2c[nH]c3ncncc32)cc1
Q = Cn1c(-c2ccccc2)nc2c(Sc3ccccc3)ncnc21
Hey, which is lower on measured inhibition, P or Q ? Please respond with the label that marks your chosen entry.
P

I = c1ccc(CSc2ncnc3[nH]cnc23)cc1
II = Fc1ccc(C[n+]2c[nH]c3ncncc32)cc1
Looking at recorded values for inhibition, does I or II come in lower? Answer with the label corresponding to your selection.
II

I = Cn1cnc2c(Nc3ccc(F)cc3)ncnc21
II = Cn1c(-c2ccc([S+](C)[O-])cc2)nc2c(Sc3ccc(F)cc3)ncnc21 (stereo not drawn)
III = Cn1cnc2c(/C=C/c3ccccc3)ncnc21
Put the items in sequence by inhibition, from largest down. To answer, write out the labels according to the requested order.
I, III, II
(I: 27%, III: 8%, II: 4%)

P = Fc1ccc(Cn2cnc3c(Sc4ccccc4)ncnc32)cc1
Q = c1ccc(Sc2ncnc3[nH]cnc23)cc1
I would appreciate it if you could say which entry, P or Q , has the lower inhibition value. Identify your selection by its label.
P

* * *

Biological target: Protein kinase C alpha type (Homo sapiens) (UniProt P17252)
Test: Inhibition of human Protein kinase C alpha
Design: concentration or dose not given beside the values
Details: concentration not given here
measured metric: inhibition (%)

Example cases with answers are listed next.
{"compound": "Nc1ncnc2c1ncn2Cc1ccc(F)cc1", "experimental target": "Protein kinase C alpha type (Homo sapiens) (UniProt P17252)", "inhibition [%]": 16}
{"compound": "COc1ncnc2ncn(Cc3ccc(F)cc3)c12", "experimental target": "Protein kinase C alpha type (Homo sapiens) (UniProt P17252)", "inhibition [%]": 7}
{"compound": "Cn1cnc2c(SCc3ccc(F)cc3)ncnc21", "experimental target": "Protein kinase C alpha type (Homo sapiens) (UniProt P17252)", "inhibition [%]": 12}
{"compound": "Cn1c(-c2ccc([S+](C)[O-])cc2)nc2c(Sc3ccccc3)ncnc21 (configuration not stated)", "experimental target": "Protein kinase C alpha type (Homo sapiens) (UniProt P17252)", "inhibition [%]": 8}
{"compound": "Cn1cnc2c(Sc3ccccc3)ncnc21", "experimental target": "Protein kinase C alpha type (Homo sapiens) (UniProt P17252)", "inhibition [%]": 13}

P = c1ccc(CSc2ncnc3[nH]cnc23)cc1
Q = Nc1ncnc2c1ncn2Cc1ccccc1
Could you tell me which of these two has the smaller inhibition figure? First: P Second: Q Choose, then provide that item's label.
Q

* * *

Target: Ca2+/calmodulin-dependent protein kinase II (CaM kinase II) (Rattus norvegicus) (UniProt P11275+P08413+P15791+P11730)
Assay: Inhibition of rat Calcium/calmodulin-dependent protein kinase type II at 30 uM
Type: protein assay
measured metric: inhibition (%)

Examples with their reported inhibition follow.
{"compound smiles": "Fc1ccc(Sc2ncnc3c2ncn3Cc2ccccc2)cc1", "measured metric": "inhibition", "unit": "%", "observed result": 0}
{"compound smiles": "Fc1ccc(C[n+]2c[nH]c3ncncc32)cc1", "measured metric": "inhibition", "unit": "%", "observed result": 5}
{"compound smiles": "Nc1ncnc2c1ncn2Cc1ccc(F)cc1", "measured metric": "inhibition", "unit": "%", "observed result": 9}
{"compound smiles": "Fc1ccc(Sc2[nH]cnc3nccc2-3)cc1", "measured metric": "inhibition", "unit": "%", "observed result": 3}
{"compound smiles": "Nc1ncnc2ncn(Cc3ccc(F)cc3)c12", "measured metric": "inhibition", "unit": "%", "observed result": 8}

1 = c1ccc(C[n+]2c[nH]c3ncncc32)cc1
2 = c1ccc(Cn2cnc3c(Sc4ccccc4)ncnc32)cc1
For the two items 1 and 2 , which reports the higher inhibition value? Write down the label attached to your selection.
1

* * *

Target: RAF proto-oncogene serine/threonine-protein kinase (Homo sapiens)
Experiment: Inhibition of human RAF proto-oncogene serine/threonine-protein kinase at 30 uM
measured metric: inhibition (%)

{"compound": "Cn1c(-c2ccc([S+](C)[O-])cc2)nc2c(Sc3ccccc3)ncnc21 (stereo not drawn)", "experimental target": "RAF proto-oncogene serine/threonine-protein kinase (Homo sapiens)", "inhibition / %": 0}
{"compound": "c1ccc(C[n+]2c[nH]c3ncncc32)cc1", "experimental target": "RAF proto-oncogene serine/threonine-protein kinase (Homo sapiens)", "inhibition / %": 10}
{"compound": "Fc1ccc(Sc2[nH]cnc3nccc2-3)cc1", "experimental target": "RAF proto-oncogene serine/threonine-protein kinase (Homo sapiens)", "inhibition / %": 43}

a = Cn1c(Br)nc2c(Sc3ccccc3)ncnc21
b = c1ccc(Nc2ncnc3[nH]cnc23)cc1
c = Cn1cnc2c(Sc3ccc(F)cc3)ncnc21
// sort entries: inhibition, high to low Please, when replying, give the labels in the order that was requested.
b, c, a
(b: 19%, c: 12%, a: 0%)

P = Nc1ncnc2c1ncn2Cc1ccccc1
Q = Fc1ccc(Sc2ncnc3c2ncn3Cc2ccccc2)cc1
R = Fc1ccc(CSc2[nH]cnc3ncnc2-3)cc1
S = Cn1cnc2c(-c3ccccc3)ncnc21
Reorder the items by inhibition, least to greatest. Record the ranking as a list of labels in the requested order.
Q, S, P, R
(Q: 0%, S: 12%, P: 25%, R: 47%)

1 = c1ccc(Sc2[nH]cnc3nccc2-3)cc1
2 = Clc1ncnc2ncn(Cc3ccccc3)c12
Problem: Given the entries 1 and 2 , determine which has the lower reported inhibition. When you have decided, please share the label of that item.
2
(2: 12%, 1: 22%)
